Test system: DU145
Test: Euclidean distance of Cell Painting phenotypic profile (signed KS, 77 features) to DMSO centroid (dimensionless distance); 5 or 10 uM (library dependent); higher = stronger phenotypic change vs DMSO (phenoactivity)
Settings: 48 h
Structures can show the parent of a compound that is named as a salt.
attribute measured: Euclidean distance
Keep it simple and answer with nothing but the number.

Solved cases (4 shown):
INSERT INTO measurements (compound, attribute_measured, meas_value) VALUES
  ('O=C(c1ccc(/C=C/c2n[nH]c3ccccc23)cc1)N1CCNCC1', 'Euclidean distance', 3.66),
  ('Nc1ccccc1NC(=O)c1ccc(CNc2nccc(-c3cccnc3)n2)cc1', 'Euclidean distance', 2.95),
  ('CC(C)c1cc(C(=O)N2Cc3ccc(CN4CCN(C)CC4)cc3C2)c(O)cc1O', 'Euclidean distance', 3.91),
  ('CCCCc1nc(Cl)c(CO)n1Cc1ccc(-c2ccccc2-c2nnn[nH]2)cc1', 'Euclidean distance', 0.847);

Please examine the following record next.
I would be grateful if you could share the reported Euclidean distance for NNc1nncc2ccccc12 [Hydralazine HCl] .
0.857

* * *

Tested on: 786-O
Experiment: Euclidean distance of Cell Painting phenotypic profile (signed KS, 77 features) to DMSO centroid (dimensionless distance); 5 or 10 uM (library dependent); higher = stronger phenotypic change vs DMSO (phenoactivity)
Conditions: 48 h
Counter-ions that a name gives are not always drawn.
Threshold rule: Euclidean distance greater than or equal to 2 is label 1; below that, label 0.

Record excerpt, results attached:
INSERT INTO results (compound, category) VALUES
  ('Cc1ccc2c(=O)c3cccc(CC(=O)O)c3oc2c1C [DMXAA (Vadimezan)]', 'label 1'),
  ('CN(C)/N=N/c1[nH]cnc1C(N)=O [Dacarbazine]', 'label 0'),
  ('C[C@H]1[C@H](C)CC[C@]2(C(=O)O)CC[C@]3(C)C(=CC[C@@H]4[C@@]5(C)C[C@@H](O)[C@H](O)[C@@](C)(CO)[C@@H]5CC[C@]43C)[C@H]12 [Asiatic Acid]', 'label 0'),
  ('Oc1ccc(OCc2ccccc2)cc1 [Monobenzone]', 'label 1'),
  ('Cc1ccc(C(C)C)c(O)c1 [Thymol]', 'label 0'),
  ('C#Cc1cccc(Nc2ncnc3cc(OCCOC)c(OCCOC)cc23)c1 [Erlotinib HCl (OSI-744)]', 'label 0'),
  ('Cc1cccc(-c2[nH]c(C(C)(C)C)nc2-c2ccc3c(c2)OCO3)n1', 'label 0'),
  ('CN1CCc2c(c3ccccc3n2Cc2ccccc2)C1 [Mebhydrolin napadisylate]', 'label 0');

Please check the record Cc1ccccc1OCC(O)CO (stereo not drawn) [Mephenesin] and state if its Euclidean distance is at or above 2.
label 0

Please check the record CO[C@@H]1[C@H](OC(=O)/C=C/C=C/C=C/C=C/C(=O)O)CC[C@]2(CO2)[C@H]1[C@@]1(C)O[C@@H]1CC=C(C)C [Fumagillin] and state if its Euclidean distance is at or above 2.
label 1

Please check the record CC(C)(C)c1nc(-c2cccc(NS(=O)(=O)c3c(F)cccc3F)c2F)c(-c2ccnc(N)n2)s1 [Dabrafenib Mesylate] and state if its Euclidean distance is at or above 2.
label 0

Please check the record CC1=C(C(=O)O)N2C(=O)[C@@H](NC(=O)[C@H](N)C3=CCC=CC3)[C@H]2SC1 [Cephradine monohydrate] and state if its Euclidean distance is at or above 2.
label 0

Please check the record "O=C(Nc1ccccc1)N1CCN(c2nc(-c3ccccc3)ns2)CC1" and state if its Euclidean distance is at or above 2.
label 0

Please check the record O=c1c2ccccc2oc2ccccc12 [Xanthone] and state if its Euclidean distance is at or above 2.
label 0

Please check the record CCC(=O)N1CC[C@H](Nc2ncnc3c2CN(c2cnc(OC)c(C(F)(F)F)c2)CC3)C1 [leniolisib(CDZ 173)] and state if its Euclidean distance is at or above 2.
label 0

Please check the record Cc1onc(-c2ccccc2)c1C(=O)N[C@@H]1C(=O)N2[C@@H]1SC(C)(C)[C@@H]2C(=O)O [Oxacillin sodium monohydrate] and state if its Euclidean distance is at or above 2.
label 0

Please check the record CC(C)Oc1ccc2c(=O)c(-c3ccccc3)coc2c1 [Ipriflavone (Osteofix)] and state if its Euclidean distance is at or above 2.
label 0

Please check the record "O=C1NC(=O)/C(=C/c2ccc3nccc(-c4ccncc4)c3c2)S1" and state if its Euclidean distance is at or above 2.
label 0

* * *

Test system: OVCAR4
Assay: Euclidean distance of Cell Painting phenotypic profile (signed KS, 77 features) to DMSO centroid (dimensionless distance); 5 or 10 uM (library dependent); higher = stronger phenotypic change vs DMSO (phenoactivity)
Details: 48 h
Counter-ions that a name gives are not always drawn.
attribute measured: Euclidean distance
Keep it simple and answer with nothing but the number.

INSERT INTO assay_data (molecule, attribute_measured, meas_value) VALUES
  ('O=C(O)c1ccc(N2C(=O)/C(=C\c3ccc(-c4ccc([N+](=O)[O-])cc4)o3)C=C2c2ccccc2)cc1', 'Euclidean distance', 0.995);

Please examine the following record next.
I would be grateful if you could share the reported Euclidean distance for CC(C)(C)NCC(O)COc1cccc2c1CCC(=O)N2 (stereo unspecified) [Carteolol HCl] .
2.01

* * *

Tested on: OVCAR4
Assay: Euclidean distance of Cell Painting phenotypic profile (signed KS, 77 features) to DMSO centroid (dimensionless distance); 5 or 10 uM (library dependent); higher = stronger phenotypic change vs DMSO (phenoactivity)
Details: 48 h
attribute measured: Euclidean distance
Keep it simple and answer with nothing but the number.

INSERT INTO results (molecule, study_target, meas_value) VALUES
  ('CS(=O)(=O)Nc1cc2occ(NC=O)c(=O)c2cc1Oc1ccccc1', 'OVCAR4', 0.85);

Please examine the following record next.
I would be grateful if you could share the reported Euclidean distance for "Oc1ccc(Cl)c2cccnc12" .
1.97

* * *

Test system: OVCAR4
Experiment: Euclidean distance of Cell Painting phenotypic profile (signed KS, 77 features) to DMSO centroid (dimensionless distance); 5 or 10 uM (library dependent); higher = stronger phenotypic change vs DMSO (phenoactivity)
Details: 48 h
Where a name gives a salt, the structure may show the parent alone.
Threshold rule: Euclidean distance greater than or equal to 3 is MET; below that, NOT MET.

Record excerpt, results attached:
INSERT INTO results (molecule, category) VALUES
  ('CC(C)(C(=O)O)c1ccc(C(O)CCCN2CCC(C(O)(c3ccccc3)c3ccccc3)CC2)cc1 (stereo not drawn) [Fexofenadine HCl]', 'NOT MET'),
  ('CCOc1cc([C@@H](CS(C)(=O)=O)N2C(=O)c3cccc(NC(C)=O)c3C2=O)ccc1OC', 'NOT MET'),
  ('C[N+](C)(C)CCOC(=O)CCC(=O)OCC[N+](C)(C)C [Succinylcholine Chloride Dihydrate]', 'NOT MET');

Please check the record "O=C(NC1CCNCC1)c1n[nH]cc1NC(=O)c1c(Cl)cccc1Cl" and state if its Euclidean distance is at or above 3.
MET

Please check the record "Nc1nc(=O)c2nc(CNc3ccc(C(=O)N[C@@H](CCC(=O)O)C(=O)O)cc3)cnc2[nH]1" and state if its Euclidean distance is at or above 3.
NOT MET

Please check the record "CN(C)CCOc1ccc(-c2nc(-c3ccncc3)c(-c3ccc4c(c3)CC/C4=N\O)[nH]2)cc1" and state if its Euclidean distance is at or above 3.
NOT MET

Please check the record "COc1cccc2c1C(=O)c1c(O)c3c(c(O)c1C2=O)C[C@@](O)(C(=O)CO)C[C@@H]3O[C@H]1C[C@H](N)[C@H](O[C@@H]2CCCCO2)[C@H](C)O1" and state if its Euclidean distance is at or above 3.
MET

Please check the record "CC(C)Nc1cc(-c2c[nH]c(C(=O)N[C@H](CO)c3cccc(Cl)c3)c2)c(Cl)cn1" and state if its Euclidean distance is at or above 3.
MET

* * *

System: OVCAR4
Test: Euclidean distance of Cell Painting phenotypic profile (signed KS, 77 features) to DMSO centroid (dimensionless distance); 5 or 10 uM (library dependent); higher = stronger phenotypic change vs DMSO (phenoactivity)
Details: 48 h
Counter-ions that a name gives are not always drawn.
Entries are grouped by Euclidean distance into these classes: Low: < 1; Medium: ≥ 1 and < 2; High: ≥ 2

INSERT INTO results (compound, category) VALUES
  ('C[C@@H](CN1CC(=O)NC(=O)C1)N1CC(=O)NC(=O)C1 [Dexrazoxane HCl (ICRF-187. ADR-529)]', 'Medium'),
  ('C[C@H]1CNC(=O)c2cnn3ccc(nc23)N[C@H](C)c2cc(F)ccc2O1', 'High'),
  ('Cc1cnc(Nc2ccc(N3CCN(C)CC3)cc2)nc1Nc1cccc(S(=O)(=O)NC(C)(C)C)c1', 'High'),
  ('CCOc1ccn(-c2ccc(F)cc2)c(=O)c1C(=O)Nc1ccc(Oc2ccnc(N)c2Cl)c(F)c1', 'High'),
  ('COc1ccc(C2=N[C@@H](c3ccc(Cl)cc3)[C@@H](c3ccc(Cl)cc3)N2C(=O)N2CCNC(=O)C2)c(OC(C)C)c1', 'Medium');

Any idea which band COC(=O)[C@@H]1[C@H]2C[C@H]3c4[nH]c5ccccc5c4CCN3C[C@@H]2CC[C@@H]1O [Yohimbine HCl] is in?
Low

Any idea which band O=C(Nc1cnn2ccc(N3CCC[C@@H]3c3cc(F)ccc3F)nc12)N1CC[C@H](O)C1 [Larotrectinib (LOXO-101) sulfate] is in?
Medium
